- studySystem: I1 imidazoline receptor
- assaySummary: I1 imidazoline receptor binding assay ([3H]clonidine)
- assayContext: [3H]clonidine 15 nM, bovine adrenal medulla glands, 60 min 22°C
outcomeMeasure: pIC50
Lab note: report pIC50 as minus log10 of the concentration in molar units, number only.

Asked: Return reported pIC50; argument: C1COC(NC(C2CC2)C2CC2)=N1 [rilmenidine, reference compound]
Given back: 6.80

----------
- studySystem: I2 imidazoline receptor
- assaySummary: I2 imidazoline receptor binding assay ([3H]idazoxan)
- assayContext: [3H]idazoxan 2 nM, rat cerebral cortex, 30 min 22°C
outcomeMeasure: pIC50
Lab note: report pIC50 as minus log10 of the concentration in molar units, number only.

Asked: Return reported pIC50; argument: c1ccc2c(c1)OCC(C1=NCCN1)O2 (stereo not shown) [idazoxan, reference compound]
Given back: 7.80
